experiment: Spectral properties of the fluorinated rhodamines (absorption, emission, quantum yield, lifetime); assay type: physicochemical; conditions: methanol
measured quantity: EMISSION λMAX (nm)

O=C1OC2(c3cc(F)c(NCC(F)(F)F)cc3Oc3cc(NCC(F)(F)F)c(F)cc32)c2ccccc21; 519
O=C(O)c1ccc2c(c1)C1(OC2=O)c2ccc(NCC(F)(F)F)cc2Oc2cc(NCC(F)(F)F)ccc21 [15 (43-COOH)]; 522
CN(C)c1cc2c(cc1F)C1(OC(=O)c3ccccc31)c1cc(F)c(N(C)C)cc1O2; 576
O=C(O)c1ccccc1-c1c2ccc(=NCC(F)(F)F)c(S(=O)(=O)O)c-2oc2c(S(=O)(=O)O)c(NCC(F)(F)F)ccc12; 524
CN(CCC(=O)O)C(=O)c1ccccc1-c1c2ccc(=NCC(F)(F)F)c(S(=O)(=O)O)c-2oc2c(S(=O)(=O)O)c(NCC(F)(F)F)ccc12 [Compound 16a]; 536

The reported numbers originate from patent US8735444B2.
